Sourced from ChEMBL document CHEMBL5244275

assay: in vivo; settings: chimpanzee, iv, 0.5 mg/kg
measure_name: half-life (h)
The answer is to be given in h; state only the numeric part.

Quick note, half-life for `CC[C@H](C)C[C@H](C)CCCCCCCCC(=O)N[C@H]1C[C@@H](O)[C@@H](OCCN)NC(=O)[C@@H]2[C@@H](O)CCN2C(=O)[C@H]([C@H](O)CCN)NC(=O)[C@H]([C@H](O)[C@@H](O)c2ccc(O)cc2)NC(=O)[C@@H]2C[C@@H](O)CN2C(=O)[C@H]([C@@H](C)O)NC1=O` landed at 2.6

====

assay: Inhibition of Acinetobacter baumannii beta-lactamase OXA-24
What IC50 was measured for each of the following?
The answer is to be given in µM; state only the numeric part.

Quick note, IC50 for `C[C@]1(COC(=O)Cc2ccc(O)c(O)c2)[C@H](C(=O)O)N2C(=O)/C(=C/c3ccccn3)[C@H]2S1(=O)=O` landed at 0.015

Quick note, IC50 for C[C@]1(Cn2ccnn2)[C@H](C(=O)O)N2C(=O)C[C@H]2S1(=O)=O [TAZOBACTAM] landed at 27.9

====

assay: Stability of the compound assessed as compound hydrolysis by measuring rate constant by NMR spectroscopic analysis; format: physicochemical
measure_name: K

Quick note, K for `C=CC1(C)CCCCC1` landed at 9.9 10^-3No_unit

Quick note, K for `C=CC1(C)OCCO1` landed at 8.8 10^-4No_unit

Quick note, K for CC(Cl)C1(C)OCCO1 (stereo unspecified) landed at 0

Quick note, K for CC(Cl)C1(C)CCCCC1 (stereo unspecified) landed at 2.25 10^-6No_unit

Quick note, K for `C=CC1(C)CCC(C)(C)CC1` landed at 7.33 10^-4No_unit

Quick note, K for CC(Cl)C1(C)CCC(C)(C)CC1 (stereo unspecified) landed at 0

====

test: Terminal half-life in rhesus monkey at 40 mg/kg, po; format: ADME, organism-based, Macaca mulatta; conditions: in vivo, read-out: beta t1/2 (converted)
measure_name: half-life (h)
The answer is to be given in h; state only the numeric part.

Quick note, half-life for `CCC[C@@H](NC(=O)N1C(=O)C(CC)(CC)[C@@H]1Oc1ccc(CC(=O)O)cc1)c1ccc(C)cc1` landed at 6

Quick note, half-life for `CCC[C@@H](NC(=O)N1C(=O)C(CC)(CC)[C@@H]1Oc1ccc(C(=O)N2CCN(C)CC2)cc1)c1ccc2c(c1)OCO2` landed at 6

====

biological target: Substance-P receptor (Homo sapiens, UniProt P25103); experiment: Displacement of [125I]-labeled SP from human NK-1 receptor expressed in CHO cells
Sequence (P25103 whole entry): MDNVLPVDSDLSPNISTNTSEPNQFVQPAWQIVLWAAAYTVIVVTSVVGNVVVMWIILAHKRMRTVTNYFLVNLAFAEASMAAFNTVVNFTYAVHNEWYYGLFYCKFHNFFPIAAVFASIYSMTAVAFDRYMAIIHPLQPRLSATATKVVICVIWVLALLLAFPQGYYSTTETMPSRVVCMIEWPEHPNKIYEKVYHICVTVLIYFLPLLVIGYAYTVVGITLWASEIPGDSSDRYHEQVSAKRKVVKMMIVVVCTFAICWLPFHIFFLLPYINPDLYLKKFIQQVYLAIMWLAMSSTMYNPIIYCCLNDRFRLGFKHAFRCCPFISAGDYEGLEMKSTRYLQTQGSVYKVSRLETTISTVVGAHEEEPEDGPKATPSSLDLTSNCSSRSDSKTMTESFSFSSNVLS
What log10 IC50 was measured for each of the following?
Recall that a logarithmic scale is used here: each number is log10 of IC50 in nM.

Quick note, log10 IC50 for `Fc1ccc([C@@H]2NCCO[C@@]23C[C@@H](c2ccccc2C(F)(F)F)CO3)cc1` landed at 1.38

Quick note, log10 IC50 for `Fc1ccc([C@@H]2NCCO[C@]23CC[C@H](c2ccccc2C(F)(F)F)CO3)cc1` landed at 2.60

Quick note, log10 IC50 for `CN(C)Cc1[nH]nnc1CN1CCO[C@@]2(CC[C@@H](c3ccccc3C(F)(F)F)CO2)[C@@H]1c1ccc(F)cc1` landed at 0.04

Quick note, log10 IC50 for `COc1cccc(-n2nnnc2C(F)(F)F)c1[C@H]1CO[C@@]2(C1)OCCN[C@H]2c1ccc(F)cc1` landed at -1.00

Quick note, log10 IC50 for `CN(C)Cc1[nH]nnc1CN1CCO[C@@]2(CC[C@@H](c3ccccc3OC(F)(F)F)CO2)[C@@H]1c1ccc(F)cc1` landed at 0.15

Quick note, log10 IC50 for `Fc1ccc([C@@H]2NCCO[C@@]23CC[C@@H](c2ccccc2C(F)(F)F)CO3)cc1` landed at 1.45
